The reported measurements were obtained from PubChem BioAssay (EPA / NIEHS).

# Read-out: Interleukin-8 (IL8), CXCL8 (gene 3576)
# Assay Info: BSK_3C_IL8: BioMAP Diversity Plus: 3C Assay for Interleukin-8 (IL8) Biomarker Activity (AID 2283020)
# Experimental Parameters: primary human endothelial cells (HUVEC); actives raise or lower the signal
The source made the active and inactive calls. How the source made its calls: active means hit-call score of the fitted dose curve at least 0.9, where 1 is the maximum; inactive means score below 0.9.
Outcome codes: true (1) = active, false (0) = inactive

{"Compound": "Cc1[nH]c(=O)n(C(C)(C)C)c(=O)c1Cl", "Qualitative Label": "false (0)"}
{"Compound": "CCOCN(C(=O)CCl)c1c(C)cccc1CC", "Qualitative Label": "false (0)"}
{"Compound": "COP(=S)(OC)Oc1ccc(SC)c(C)c1", "Qualitative Label": "false (0)"}
{"Compound": "CNC(=O)/C=C(\\C)OP(=O)(OC)OC", "Qualitative Label": "false (0)"}
{"Compound": "N#Cc1c(Cl)c(Cl)c(Cl)c(C#N)c1Cl", "Qualitative Label": "true (1)"}
{"Compound": "O=C(NC(=O)c1c(F)cccc1F)Nc1ccc(OC(F)(F)C(F)OC(F)(F)F)c(Cl)c1 (configuration not stated)", "Qualitative Label": "false (0)"}
{"Compound": "O=C(Nc1ccccc1)Nc1cnns1", "Qualitative Label": "false (0)"}
{"Compound": "C#CCN1C(=O)COc2cc(F)c(N3C(=O)C4=C(CCCC4)C3=O)cc21", "Qualitative Label": "false (0)"}
{"Compound": "COc1nn(CSP(=S)(OC)OC)c(=O)s1", "Qualitative Label": "false (0)"}
{"Compound": "O=[N+]([O-])c1c(Cl)c(Cl)c(Cl)c(Cl)c1Cl", "Qualitative Label": "false (0)"}
{"Compound": "COP(=O)(OC)OC=C(Cl)Cl", "Qualitative Label": "false (0)"}
{"Compound": "CC1(C)C(C=C(Cl)Cl)C1C(=O)OC(C#N)c1ccc(F)c(Oc2ccccc2)c1 (configuration not stated)", "Qualitative Label": "false (0)"}

====

# Read-out: Fatty Acid-Binding Protein 1 (FABP1), FABP1 (gene 2168)
# Assay Info: LTEA_HepaRG_FABP1: Life Technologies and Expression Analysis (LTEA) Assay for Fatty Acid-Binding Protein 1 (FABP1) using HepaRG (AID 2283494)
# Experimental Parameters: mRNA level, 48 h; actives raise or lower the signal
Calls of active or inactive are those of the source. How the source made its calls: active means hit-call score of the fitted dose curve at least 0.9, where 1 is the maximum; inactive means score below 0.9.
Outcome codes: true (1) = active, false (0) = inactive

{"Mol Smiles": "CCc1ccc(C(=O)NN(C(=O)c2cc(C)cc(C)c2)C(C)(C)C)cc1", "Qualitative Label": "true (1)"}
{"Mol Smiles": "C#CCN1C(=O)COc2cc(F)c(N3C(=O)C4=C(CCCC4)C3=O)cc21", "Qualitative Label": "true (1)"}
{"Mol Smiles": "N#Cc1c(Cl)c(Cl)c(Cl)c(C#N)c1Cl", "Qualitative Label": "true (1)"}
{"Mol Smiles": "CN1CSC(=S)N(C)C1", "Qualitative Label": "false (0)"}
{"Mol Smiles": "COP(=S)(OC)Oc1ccc([N+](=O)[O-])cc1", "Qualitative Label": "false (0)"}
{"Mol Smiles": "COc1nn(CSP(=S)(OC)OC)c(=O)s1", "Qualitative Label": "false (0)"}

====

# Assay Info: CCTE_Shafer_MEA_dev_bursting_electrodes_number: CCTE's Neural Network Formation Assay for Number of Bursting Electrodes, Shafer Lab (AID 2284043)
Records with an inconclusive call do not appear. Activity calls are given as the source filed them. How the source made its calls: active means hit-call score of the fitted dose curve at least 0.9, where 1 is the maximum; inconclusive means response in the unintended direction; inactive means score below 0.9.
Outcome codes: True (active), False (inactive)

{"Compound": "O=[N+]([O-])/N=C1\\NCCN1Cc1ccc(Cl)nc1", "Qualitative Label": "False"}
{"Compound": "COP(=S)(OC)Oc1ccc([N+](=O)[O-])cc1", "Qualitative Label": "True"}
{"Compound": "O=S1OCC2C(CO1)C1(Cl)C(Cl)=C(Cl)C2(Cl)C1(Cl)Cl (centres undefined)", "Qualitative Label": "True"}
{"Compound": "ClC1C(Cl)C(Cl)C(Cl)C(Cl)C1Cl (centres undefined)", "Qualitative Label": "False"}

====

# Assay Info: BSK_3C_VCAM1: BioMAP Diversity Plus: 3C Assay for Vascular cell adhesion molecule 1 (VCAM1) Biomarker Activity (AID 2282999)
# Experimental Parameters: BioMAP 3C HUVEC, VCAM1 ELISA, cytokine-stimulated; actives raise or lower the signal
The source made the active and inactive calls. The calls were made as follows: active = hit-call score of the fitted dose curve at least 0.9, where 1 is the maximum; inactive = score below 0.9.

{"Molecule": "Oc1cc(Cl)ccc1Oc1ccc(Cl)cc1Cl", "AC50": "28.1 µM (active) [middle of 4 runs]"}
{"Molecule": "CNC(=O)/C=C(\\C)OP(=O)(OC)OC", "AC50": "inactive"}
{"Molecule": "CCOc1nc(NC)nc(NC(=O)NS(=O)(=O)c2ccccc2C(=O)OC)n1", "AC50": "inactive"}
{"Molecule": "COc1nn(CSP(=S)(OC)OC)c(=O)s1", "AC50": "inactive"}
{"Molecule": "COC(=O)c1ccccc1S(=O)(=O)NC(=O)N(C)c1nc(C)nc(OC)n1", "AC50": "inactive"}
{"Molecule": "CNC(=O)Oc1cccc(N=CN(C)C)c1", "AC50": "29 µM (active)"}
{"Molecule": "CCC(C)(C)C(=O)OC1=C(c2ccc(Cl)cc2Cl)C(=O)OC12CCCCC2", "AC50": "24.7 µM (active)"}
{"Molecule": "OCCOc1ccccc1", "AC50": "inactive"}
{"Molecule": "COP(=O)(OC)OC=C(Cl)Cl", "AC50": "inactive"}
{"Molecule": "O=C1c2ccccc2C(=O)N1SC(Cl)(Cl)Cl", "AC50": "inactive"}
{"Molecule": "COP(=S)(OC)Oc1ccc([N+](=O)[O-])cc1", "AC50": "inactive"}
{"Molecule": "CCN(CC)C(=O)SCc1ccc(Cl)cc1", "AC50": "inactive"}
{"Molecule": "Oc1ccc(Cl)cc1Cc1ccccc1", "AC50": "34.9 µM (active) [middle of 7 runs]"}
{"Molecule": "CC(C)(C)C(O)C(Oc1ccc(Cl)cc1)n1cncn1 (configuration not stated)", "AC50": "inactive"}
{"Molecule": "[2H]C1([2H])[n+]2ccccc2-c2cccc[n+]2C1([2H])[2H]", "AC50": "inactive"}
{"Molecule": "O=C(O)C(F)(F)C(F)(F)C(F)(F)C(F)(F)C(F)(F)C(F)(F)C(F)(F)F", "AC50": "inactive"}
{"Molecule": "N#Cc1c(Cl)c(Cl)c(Cl)c(C#N)c1Cl", "AC50": "1.06 µM (active)"}
{"Molecule": "CCc1ccc(C(=O)NN(C(=O)c2cc(C)cc(C)c2)C(C)(C)C)cc1", "AC50": "inactive"}
{"Molecule": "CC1(c2ccc(Oc3ccccc3)cc2)OC(=O)N(Nc2ccccc2)C1=O (configuration not stated)", "AC50": "33 µM (active)"}
{"Molecule": "C[C@H]1[C@H](c2ccc(Cl)cc2)SC(=O)N1C(=O)NC1CCCCC1", "AC50": "inactive"}
{"Molecule": "CCOCN(C(=O)CCl)c1c(C)cccc1CC", "AC50": "14.3 µM (active)"}
{"Molecule": "COc1cc(OC)nc(NC(=O)NS(=O)(=O)c2cc(NC=O)ccc2C(=O)N(C)C)n1", "AC50": "inactive"}

====

# Experimental Target: human Tyrosine Protein Kinase Receptor Tie-2 (Tie2), TEK (gene 7010) (UniProt Q02763)
# Sequence (Q02763 whole entry, looked up): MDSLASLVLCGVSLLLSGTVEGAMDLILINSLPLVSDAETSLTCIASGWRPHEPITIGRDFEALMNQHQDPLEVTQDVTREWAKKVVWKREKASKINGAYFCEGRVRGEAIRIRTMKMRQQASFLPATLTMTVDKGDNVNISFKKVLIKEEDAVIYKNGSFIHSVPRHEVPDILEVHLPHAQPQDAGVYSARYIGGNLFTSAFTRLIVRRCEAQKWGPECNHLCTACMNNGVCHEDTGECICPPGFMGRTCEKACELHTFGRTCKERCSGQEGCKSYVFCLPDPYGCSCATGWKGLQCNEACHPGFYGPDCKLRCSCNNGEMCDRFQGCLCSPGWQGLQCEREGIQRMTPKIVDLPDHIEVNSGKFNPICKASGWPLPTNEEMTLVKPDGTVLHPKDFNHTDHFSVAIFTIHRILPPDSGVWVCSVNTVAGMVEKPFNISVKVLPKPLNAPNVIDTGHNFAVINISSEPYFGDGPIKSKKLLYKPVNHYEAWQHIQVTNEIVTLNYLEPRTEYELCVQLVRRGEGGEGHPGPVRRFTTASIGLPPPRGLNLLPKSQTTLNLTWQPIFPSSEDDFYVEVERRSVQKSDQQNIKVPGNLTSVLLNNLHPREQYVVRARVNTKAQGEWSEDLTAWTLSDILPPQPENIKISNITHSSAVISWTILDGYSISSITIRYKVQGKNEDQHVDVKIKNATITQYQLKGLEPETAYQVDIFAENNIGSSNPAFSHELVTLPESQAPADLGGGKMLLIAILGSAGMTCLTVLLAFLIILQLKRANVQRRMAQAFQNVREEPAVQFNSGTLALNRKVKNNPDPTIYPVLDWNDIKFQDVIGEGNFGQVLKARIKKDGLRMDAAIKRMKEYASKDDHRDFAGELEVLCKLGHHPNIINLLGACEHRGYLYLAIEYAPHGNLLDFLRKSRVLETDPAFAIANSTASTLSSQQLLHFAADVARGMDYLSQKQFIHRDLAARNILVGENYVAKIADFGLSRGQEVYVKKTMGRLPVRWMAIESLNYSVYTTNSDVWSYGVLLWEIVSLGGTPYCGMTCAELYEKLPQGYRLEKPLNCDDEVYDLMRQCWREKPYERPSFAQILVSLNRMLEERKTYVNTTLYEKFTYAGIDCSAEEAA
# Assay Info: NVS_ENZ_hTie2: NovaScreen (NVS) Enzymatic Assay for human Tyrosine Protein Kinase Receptor Tie-2 (Tie2) (AID 2283225)
Records with an inconclusive call do not appear. Active and inactive are the calls of the source. Rule for the calls: active = hit-call score of the fitted dose curve at least 0.9, where 1 is the maximum; inconclusive = response in the unintended direction; inactive = score below 0.9.
Property Name: AC50

{"Compound": "Oc1cc(Cl)ccc1Oc1ccc(Cl)cc1Cl", "Experimental Target": "human Tyrosine Protein Kinase Receptor Tie-2 (Tie2), TEK (gene 7010) (UniProt Q02763)", "Test Value": "inactive"}
{"Compound": "CC(C)OC(=O)Nc1cccc(Cl)c1", "Experimental Target": "human Tyrosine Protein Kinase Receptor Tie-2 (Tie2), TEK (gene 7010) (UniProt Q02763)", "Test Value": "inactive"}
{"Compound": "CNC(=O)CSP(=S)(OC)OC", "Experimental Target": "human Tyrosine Protein Kinase Receptor Tie-2 (Tie2), TEK (gene 7010) (UniProt Q02763)", "Test Value": "inactive"}
{"Compound": "CC(C)(C)C(O)C(Oc1ccc(Cl)cc1)n1cncn1 (configuration not stated)", "Experimental Target": "human Tyrosine Protein Kinase Receptor Tie-2 (Tie2), TEK (gene 7010) (UniProt Q02763)", "Test Value": "inactive"}
{"Compound": "CC[C@H](C)[C@H]1O[C@]2(C=C[C@@H]1C)C[C@@H]1C[C@@H](C/C=C(\\C)[C@@H](O[C@H]3C[C@H](OC)[C@@H](O[C@H]4C[C@H](OC)[C@@H](O)[C@H](C)O4)[C@H](C)O3)[C@@H](C)/C=C/C=C3\\CO[C@@H]4[C@H](O)C(C)=C[C@@H](C(=O)O1)[C@]34O)O2 (tested in a mixture with another compound)", "Experimental Target": "human Tyrosine Protein Kinase Receptor Tie-2 (Tie2), TEK (gene 7010) (UniProt Q02763)", "Test Value": "36.1 µM (active)"}
{"Compound": "O=C(O)C(F)(F)C(F)(F)C(F)(F)C(F)(F)C(F)(F)C(F)(F)C(F)(F)F", "Experimental Target": "human Tyrosine Protein Kinase Receptor Tie-2 (Tie2), TEK (gene 7010) (UniProt Q02763)", "Test Value": "13.7 µM (active)"}
{"Compound": "Cc1cc(C)nc(NC(=O)NS(=O)(=O)c2ccccc2C(=O)OC2COC2)n1", "Experimental Target": "human Tyrosine Protein Kinase Receptor Tie-2 (Tie2), TEK (gene 7010) (UniProt Q02763)", "Test Value": "inactive"}
